Reference source: PubChem BioAssay (NCI)

Tested on: SF-295 CNS
Experiment: NCI tumour cell line growth inhibition, 48 h; in the data active = GI50 below about 0.43 µM; inactive = the rest
Possible outcomes: Y (active), N (inactive)

>>> df
                                    compound  label_class
 0        CCN(Cc1cccc(F)c1F)c1ccc(CO)c(Cl)c1            Y
 1                O=Nc1c(O)c2ccccc2c2ccccc12            N
 2  CNC(=O)c1cc2c(Oc3ccc(NC(=S)NC(=O)Cc4ccccc4)cc3F)ccnc2cc1OC            Y
 3  N=C(N)SCc1ccc([N+](=O)[O-])cc1[N+](=O)[O-]            N
 4  CC/C=C\C[C@H](O)C/C=C1/C(=O)C=C[C@@H]1C/C=C\CCCC(=O)NC            N
 5  CC12CCC(O)CC1=CCC1C2CCC2(C)C(c3cccnc3)=CCC12 (configuration not stated)            N
 6  CCN(CC)CCCNc1[nH]ncc2c(C)c3nc4ccccc4c3cc12            N
 7  COc1ccc(Oc2cc(NCCC(F)(F)F)c3ncc(-c4ccc(C(=O)NC5CC5)c(C)c4)n3n2)c(F)c1F            N
 8                  Nc1cc2nc3ccccc3oc-2cc1=O            N
 9               CN(C)CCNc1nc2ccccc2c2occc12            N
10  COc1ccc2[nH]c(O)c(/C=c3/ccc4c(c3)N=C(c3ccc(F)cc3)N=4)c2c1            N
11  CN1CCN(c2ccc(C(=O)Nc3cccc(C#Cc4cccc5[nH]nc(N)c45)c3)cc2C(F)(F)F)CC1            N
